Tested on: LXRb:RXRa (NR concentration 270 nM, RXRa partner concentration 90 nM)
Experiment: PBM binding z-score (relative to random genomic background probes); higher = stronger binding; sequences stand for … in GC…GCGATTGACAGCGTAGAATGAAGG
Label fulfilled when PBM binding z-score is at or above 1; otherwise label not fulfilled.

See these solved cases before continuing.
| sequence_content | class_label |
| --- | --- |
| CCTACTGGGCCAAGGTCATTGGTCAGTCAAAGCA | fulfilled |
| CGTCCAAGGTCAGAGAGGTCAGAGAATGCCGAGT | fulfilled |
| TCGAGTAGGTAAGTCGGGGCATTCAGCCAACATA | not fulfilled |

Request: Tell me whether PBM binding z-score is at least 1 here: AATACAGGGTCACTAGGCCAGCGTAGGTACGAAT
Response: fulfilled

---

// values below are reported PBM binding z-score
Tested on: PXR homodimer (NR concentration 270 nM)
Test: PBM binding z-score (relative to random genomic background probes); higher = stronger binding; sequences stand for … in GC…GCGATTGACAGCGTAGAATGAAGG
No unit in the answer, only the number.

| sequence_content | measure_name | measured |
| --- | --- | --- |
| ATCTCTAGGTAACCAAGTTCAGTGCATGCCGAAC | PBM binding z-score | 2.24 |
| GGAACGAGGGCAAGTTGACAGCAGAGTTTGATGG | PBM binding z-score | 0.641 |
| ACTCGGAGGACAAAGGCCAGAGCTACGCCAGTGA | PBM binding z-score | -0.627 |
| TGAATGAGGTTATAAAATCAGGGAACGTTGCAAA | PBM binding z-score | -0.104 |
| CCGACTGGGGCAAAGGTTACCTTACTCAGTACGA | PBM binding z-score | -0.485 |

Let me check: TTACCAAGTTGAAAGGTCGTTGATGCACGCCTTG , system PXR homodimer (NR concentration 270 nM), measured PBM binding z-score is 0.56

Let me check: ATCGAAAGGTCGTGAGGCGAGTATACAGAAAGGC , system PXR homodimer (NR concentration 270 nM), measured PBM binding z-score is 0.0504

Let me check: TCGAGTAGGTTACCAATGGGGCATGCAGCTTTCT , system PXR homodimer (NR concentration 270 nM), measured PBM binding z-score is -0.874

Let me check: CCTAGCAGGGCAATCTGGGTCACTCAAGGCTTGA , system PXR homodimer (NR concentration 270 nM), measured PBM binding z-score is -0.451

---

Test system: RXRa DBDmut IVT, anti-RXR (DBD mutation: RXRa K156A/R161A, NR concentration 90 nM)
Assay: PBM binding z-score (relative to random genomic background probes); higher = stronger binding; sequences stand for … in GC…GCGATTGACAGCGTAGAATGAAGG
measure_name: PBM binding z-score

// below: answered sequences
| sequence_content | measured |
| --- | --- |
| AATACAGGGTCATCGTAGGCGAGAGTACGCACAG | 3.52 |
| TATGCTAGGTCAACGATGGTCAGCTAATCTGCTA | 0.79 |

# sequence AGTCTAAGTTCATCTAGGTAACGTAAGATATGCT ; its PBM binding z-score = 4.94

# sequence AGTCAAAGTTCACTAGGTAACGTAGGATTCAGCT ; its PBM binding z-score = 4.05

# sequence CCTACTGGGCCAAGGTCATTCATCAGTCAAAGCA ; its PBM binding z-score = 1.7

# sequence CCTAGCAGGACAATCTGGGTCACTCAAGGCTTGA ; its PBM binding z-score = 0.379

# sequence CCTGGTTGGTCAGGAGGTCACACACCGGATATGA ; its PBM binding z-score = 0.0446

# sequence CCAGACAGGTGACAAGGTAACTCAGCCTCGATTA ; its PBM binding z-score = 0.06

# sequence CGTCCAAGGTCAGAGAGGTCAGTGGATGCCGAGT ; its PBM binding z-score = 3.42

---

Test system: PPARg:RXRa 90nM:30nM, anti-RXR (NR concentration 90 nM, RXRa partner concentration 30 nM)
Assay: PBM binding z-score (relative to random genomic background probes); higher = stronger binding; sequences stand for … in GC…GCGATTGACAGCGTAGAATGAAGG
Label Criterion met when PBM binding z-score is at or above 0.7; otherwise label Criterion not met.

See these solved cases before continuing.
| sequence_content | target_or_system | class_label |
| --- | --- | --- |
| GTACCAAGGTGAATAGGTAGTTGATGAGTAGGCG | PPARg:RXRa 90nM:30nM, anti-RXR (NR concentration 90 nM, RXRa partner concentration 30 nM) | Criterion not met |
| TAGTCTAGGTCATGCGGGCCAGTATAGTGTCGGC | PPARg:RXRa 90nM:30nM, anti-RXR (NR concentration 90 nM, RXRa partner concentration 30 nM) | Criterion met |
| TCATATAGGTAAATGCTAGGTCAAAGTCCGATCT | PPARg:RXRa 90nM:30nM, anti-RXR (NR concentration 90 nM, RXRa partner concentration 30 nM) | Criterion met |
| GAGACTGGGGCATCAGCAGGTTACCATAACTTAA | PPARg:RXRa 90nM:30nM, anti-RXR (NR concentration 90 nM, RXRa partner concentration 30 nM) | Criterion not met |
| CTACCAAGGTGAAAAAGGTCGTTGATTACTATTC | PPARg:RXRa 90nM:30nM, anti-RXR (NR concentration 90 nM, RXRa partner concentration 30 nM) | Criterion met |

Request: Tell me whether PBM binding z-score is at least 0.7 here: CCAGACTGGTGAGAAGGTAACTCAGCCTCGATTA
Response: Criterion not met

Request: Tell me whether PBM binding z-score is at least 0.7 here: TCTGCTCGGTCAACGATGGTCAGCTAATCTGCTA
Response: Criterion met

Request: Tell me whether PBM binding z-score is at least 0.7 here: ACTAGTTGGTCAGCTGAGGTCTCACACAATTCGG
Response: Criterion not met

Request: Tell me whether PBM binding z-score is at least 0.7 here: GATACAGGGTCAGCTAAAGGCCAGAGTATGGAAA
Response: Criterion met

---

Tested on: PPARg:RXRa (NR concentration 180 nM, RXRa partner concentration 90 nM)
Test: PBM binding z-score (relative to random genomic background probes); higher = stronger binding; sequences stand for … in GC…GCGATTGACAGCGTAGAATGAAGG
measure_name: PBM binding z-score
No unit in the answer, only the number.

# sequence CGAGCTAGGTCATTGACAGGACAGTGAATAGTAA ; its PBM binding z-score = 2.12

# sequence ACATGTAGGTTACATCCGGGTCATTCAGGCTATG ; its PBM binding z-score = 4.27

# sequence GCTCGGAGGACAAGCTCAGAGCTTTGTCCGTAGA ; its PBM binding z-score = -1.69

# sequence CGTCAAAGTTCAACTAAGGTAACCTAAAGCACGC ; its PBM binding z-score = 5.27

# sequence ACTAGCAGGCCAAGGGTCACTCAAGATTAGTCCG ; its PBM binding z-score = 7.75

# sequence TCTAGCAGGCCAGAGGGCCACTCAAGAGGTACGG ; its PBM binding z-score = 0.795

---

Tested on: RARb:RXRa (NR concentration 270 nM, RXRa partner concentration 90 nM)
Assay: PBM binding z-score (relative to random genomic background probes); higher = stronger binding; sequences stand for … in GC…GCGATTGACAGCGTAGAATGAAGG
Label criterion met when PBM binding z-score is at or above 2; otherwise label criterion not met.

| sequence_content | class_label |
| --- | --- |
| TAGCCTAGGTCATTGGCCCAGTATAGTACGCATC | criterion met |

Now for a further sequence.
Request: Tell me whether PBM binding z-score is at least 2 here: GCGACTGAGGCATCAGCAGGTTACCATAACTTAA
Response: criterion not met

---

Tested on: PXR:RXRa (NR concentration 270 nM, RXRa partner concentration 90 nM)
Assay: PBM binding z-score (relative to random genomic background probes); higher = stronger binding; sequences stand for … in GC…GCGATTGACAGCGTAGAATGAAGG
Label 1 when PBM binding z-score is at or above 3; otherwise label -1.

Request: Tell me whether PBM binding z-score is at least 3 here: CGAACTAGGTCAAGGACAGTGGATCTCCGCACGC
Response: -1

Request: Tell me whether PBM binding z-score is at least 3 here: TGAATGTGGTTATAAGATCAGGGAACGTTGCAAA
Response: -1

Request: Tell me whether PBM binding z-score is at least 3 here: CCTATTAGTTGACCATAAGGGCAACCGAAGCTCG
Response: -1

Request: Tell me whether PBM binding z-score is at least 3 here: ACTAGCAGGCCAAGTTCGGGTCACTCAAACAAAG
Response: -1

Request: Tell me whether PBM binding z-score is at least 3 here: TGTCTAAGTTCAAAGGTAACGTAAGTATCCACAC
Response: 1

Request: Tell me whether PBM binding z-score is at least 3 here: TCTCGGAGGACCCGAAAGGTCAGAGCTCGACATC
Response: 1
